Source: patent US20080090805A1

Biological target: CB1 (mutant) (Homo sapiens, UniProt P21554)
Sequence (P21554 1-417, change not shown): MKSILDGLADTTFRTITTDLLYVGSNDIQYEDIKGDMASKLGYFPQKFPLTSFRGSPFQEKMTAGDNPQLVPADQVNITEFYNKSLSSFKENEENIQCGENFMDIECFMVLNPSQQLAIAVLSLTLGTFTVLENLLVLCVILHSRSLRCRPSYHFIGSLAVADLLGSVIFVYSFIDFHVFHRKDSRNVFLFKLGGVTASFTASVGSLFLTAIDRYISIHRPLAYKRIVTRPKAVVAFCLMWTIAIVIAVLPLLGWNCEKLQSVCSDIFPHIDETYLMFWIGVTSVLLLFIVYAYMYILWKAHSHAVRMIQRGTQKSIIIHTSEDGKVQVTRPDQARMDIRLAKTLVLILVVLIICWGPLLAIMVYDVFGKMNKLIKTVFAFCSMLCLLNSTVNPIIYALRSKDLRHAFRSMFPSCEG
Experiment: R-SAT functional receptor assay, CB1 (mutant, truncated after amino acid 417)
Assay type: cell-based
Details: Appendix A; R-SAT CB1; receptor form not stated; relative to SR141716 (100%); read-out: % Inhibition
Readout kind: Emax (%)
# number only, unit % dropped from output

| Molecule | Emax, % |
| --- | --- |
| COCCNC(=O)c1ccc2c(c1)N=C(c1ccccc1F)c1ccccc1S2 | 99 |
| O=C(NCCc1ccccn1)c1ccc2c(c1)N=C(c1ccc(F)cc1)c1ccccc1S2 [drawing 1145] | 101 |
| CCCNC(=O)c1ccc2c(c1)N=C(c1ccc(Cl)cc1)c1ccccc1S2 [drawing 799] | 103 |
| O=C(NCc1ccccc1Cl)c1ccc2c(c1)N=C(C1CCCCC1)c1ccccc1S2 [drawing 1059] | 91 |
| O=C(NCCc1cccnc1)c1ccc2c(c1)N=C(c1cccc(F)c1)c1ccccc1S2 [drawing 981] | 94 |

// query Emax lookup needed for "CCCCNC(=O)c1ccc2c(c1)N=C(c1ccccc1Cl)c1ccccc1S2" , thanks.
// result 89

====

The following compounds are shown together with reported Ki values.
Target: native CB1 receptors (Rattus norvegicus, UniProt P20272)
Sequence (P20272 whole entry): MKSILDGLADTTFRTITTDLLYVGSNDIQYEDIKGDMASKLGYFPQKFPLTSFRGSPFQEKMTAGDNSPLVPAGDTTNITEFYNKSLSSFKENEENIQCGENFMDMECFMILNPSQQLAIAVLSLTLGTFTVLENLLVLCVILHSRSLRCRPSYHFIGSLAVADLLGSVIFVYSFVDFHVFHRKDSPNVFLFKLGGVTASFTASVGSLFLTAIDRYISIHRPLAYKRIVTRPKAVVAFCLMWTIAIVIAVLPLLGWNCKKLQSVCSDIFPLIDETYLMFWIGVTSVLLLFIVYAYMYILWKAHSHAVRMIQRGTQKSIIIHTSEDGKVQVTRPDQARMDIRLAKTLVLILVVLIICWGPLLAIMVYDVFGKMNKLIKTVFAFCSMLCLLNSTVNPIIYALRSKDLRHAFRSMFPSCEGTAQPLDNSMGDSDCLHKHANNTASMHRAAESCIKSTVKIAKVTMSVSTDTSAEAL
Experiment: CB1 receptor rat binding assay ([3H]SR141716A, rat brain membranes)
Conditions: rat brain membranes, [3H]SR141716A; read-out: Binding rat pKi (converted)
# number only, unit µM dropped from output

| Compound | Ki [µM] |
| --- | --- |
| O=C(NCc1cccs1)c1ccc2c(c1)N=C(c1ccc(Cl)s1)c1ccccc1S2 [drawing 1256] | 0.00126 |

// query Ki lookup needed for O=C(NCc1ccc(F)cc1)c1ccc2c(c1)N=C(N1CCCCC1)c1ccccc1S2 [drawing 1212] , thanks.
// result 0.0126

// query Proceed to O=C(NNC(=O)c1ccc2c(c1)N=C(c1ccc(F)cc1)c1ccccc1S2)c1ccccc1 [drawing 1519]
// result 0.0794

====

Biological target: native CB1 receptors (Rattus norvegicus, UniProt P20272)
Assay: CB1 receptor rat binding assay ([3H]SR141716A, rat brain membranes)
Conditions: rat brain membranes, [3H]SR141716A; read-out: Binding rat pKi (converted)
The following molecules are shown together with reported Ki values.
# number only, unit nM dropped from output

Example molecules with recorded Ki:
| Molecule | Assay target | Uom | Result number |
| --- | --- | --- | --- |
| O=C(NCCc1ccccc1)c1ccc2c(c1)N=C(N1CCCCC1)c1ccccc1S2 [drawing 1470] | native CB1 receptors (Rattus norvegicus, UniProt P20272) | nM | 63.1 |
| Cc1ccc(CNC(=O)c2ccc3c(c2)N=C(c2ccc(Cl)cc2)c2ccccc2S3)o1 [drawing 1416] | native CB1 receptors (Rattus norvegicus, UniProt P20272) | nM | 6.31 |
| CCONC(=O)c1ccc2c(c1)N=C(c1ccc(Cl)c(Cl)c1)c1ccccc1S2 [drawing 1512] | native CB1 receptors (Rattus norvegicus, UniProt P20272) | nM | 79.4 |
| O=C(NCc1cccs1)c1ccc2c(c1)N=C(c1ccccc1F)c1ccccc1S2 [drawing 1227] | native CB1 receptors (Rattus norvegicus, UniProt P20272) | nM | 15.8 |
| CC(CNC(=O)c1ccc2c(c1)N=C(c1ccc(F)cc1)c1ccccc1S2)c1ccccc1 (centres unmarked) [drawing 1362] | native CB1 receptors (Rattus norvegicus, UniProt P20272) | nM | 3.98 |
| O=C(NC1CCCC1)c1ccc2c(c1)N=C(c1ccc(Cl)c(Cl)c1)c1ccccc1S2 [drawing 1399] | native CB1 receptors (Rattus norvegicus, UniProt P20272) | nM | 5.01 |

// query Ki lookup needed for O=C(NN1CCCCCC1)c1ccc2c(c1)N=C(c1ccc(F)cc1)c1ccccc1S2 [drawing 1433] , thanks.
// result 6.31

// query Proceed to CN1c2ccc(C(=O)NCc3ccc(F)cc3)cc2N=C(c2ccc(F)cc2)c2ccccc21 [drawing 1496]
// result 63.1

// query Proceed to COCCNC(=O)c1ccc2c(c1)N=C(c1ccc(Cl)s1)c1ccccc1S2 [drawing 1218]
// result 50.1

// query Proceed to O=C(NCc1cccc(Cl)c1)c1ccc2c(c1)N=C(N1CCCCC1)c1cc(F)ccc1S2 [drawing 1181]
// result 12.6

// query Proceed to O=C(NN1CCCCC1)c1ccc2c(c1)N=C(c1ccc(Cl)cc1)c1ccccc1S2 [drawing 1424]
// result 6.31

// query Proceed to O=C(NCc1cccnc1)c1ccc2c(c1)N=C(c1ccc(Cl)c(Cl)c1)c1ccccc1S2 [drawing 1401]
// result 6.31

// query Proceed to O=C(NCc1cccc(Cl)c1)c1ccc2c(c1)N=C(N1CCCCC1)c1ccccc1[S+]2[O-] (centres unmarked) [drawing 1315]
// result 25.1

// query Proceed to O=C(NCc1cccnc1)c1ccc2c(c1)N=C(c1ccc(Cl)cc1)c1ccccc1S2 [drawing 1260]
// result 15.8

// query Proceed to Cc1ccsc1C1=Nc2cc(C(=O)NC(C)C)ccc2Sc2ccccc21 [drawing 1478]
// result 63.1

// query Proceed to O=C(NCc1ccccc1Br)c1ccc2c(c1)N=C(c1ccccc1)c1ccccc1S2 [drawing 1483]
// result 63.1

// query Proceed to CC(C)CNC(=O)c1ccc2c(c1)N=C(c1ccccc1F)c1ccccc1S2 [drawing 1307]
// result 20

====

Assay: Clearance study, liver microsomes (rats)
Conditions: rat, pH 7.4
Readout kind: microsomal CLint at 1 μM
Please answer in the form of a number followed by its unit of measurement.

Example compounds with recorded microsomal CLint at 1 μM:
| Compound | microsomal CLint at 1 μM |
| --- | --- |
| Cc1cccc(C2=Nc3cc(C(=O)NCc4ccc(C)o4)ccc3Sc3ccccc32)n1 [drawing 1789] | 632 µL/min/mg |
| O=C(NNCC(F)(F)F)c1ccc2c(c1)N=C(c1ccc(Cl)cc1)c1ccccc1S2 [drawing 1696] | 39 µL/min/mg |
| CCCCNC(=O)c1ccc2c(c1)N=C(c1ccc(Cl)cc1)c1ccc(F)cc1S2 [drawing 1663] | 79 µL/min/mg |
| O=C(NN1CCCCC1)c1ccc2c(c1)N=C(N1CCCCC1)c1ccccc1S2 [drawing 1792] | 536 µL/min/mg |
| CC(C)CNC(=O)c1ccc2c(c1)N=C(c1ccc(F)cc1)c1ccccc1S2 [drawing 1761] | 125 µL/min/mg |

// query microsomal CLint at 1 μM lookup needed for O=C(NCc1ccc(F)cc1)c1ccc2c(c1)N=C(c1ccc(Cl)cc1)c1ccccc1S2(=O)=O [drawing 1776] , thanks.
// result 17 µL/min/mg

// query Proceed to O=C(NCc1cccnc1)c1ccc2c(c1)N=C(c1ccc(Cl)c(Cl)c1)c1ccccc1S2 [drawing 1664]
// result 33 µL/min/mg

// query Proceed to O=C(NCCc1ccc(Cl)cc1)c1ccc2c(c1)N=C(c1ccc(Cl)cc1)c1ccccc1S2 [drawing 1807]
// result 122 µL/min/mg

====

Assay: Clearance study, liver microsomes (rats)
Conditions: rat, pH 7.4
The following compounds are shown together with reported microsomal CLint at 1 μM values.
# number only, unit µL/min/mg dropped from output

// query microsomal CLint at 1 μM lookup needed for O=C(NCc1cccc(Cl)c1)c1ccc2c(c1)N=C(N1CCCCC1)c1ccccc1[S+]2[O-] (centres unmarked) [drawing 1774] , thanks.
// result 416

====

Target: native CB1 receptors (Rattus norvegicus, UniProt P20272)
Test: CB1 receptor rat binding assay ([3H]SR141716A, rat brain membranes)
Details: rat brain membranes, [3H]SR141716A; read-out: Binding rat pKi (converted)
// boundary case: Ki equal to 10 nM maps to n; strictly smaller maps to y

| Molecule | Assay target | Class |
| --- | --- | --- |
| O=C(NCCCc1ccccc1)c1ccc2c(c1)N=C(c1cccc(Cl)c1)c1ccccc1S2 [drawing 1327] | native CB1 receptors (Rattus norvegicus, UniProt P20272) | y |

// query Identify whether the molecule CCCCNC(=O)c1ccc2c(c1)N=C(c1ccc(Cl)cc1)c1ccc(F)cc1S2 [drawing 1184] records Ki below 10 nM.
// result y

// query Proceed to C[C@@H]1CCC[C@H](C)N1NC(=O)c1ccc2c(c1)N=C(c1ccc(Cl)cc1F)c1ccccc1S2 [drawing 1474]
// result y

====

The following molecules are shown together with reported Binding rat Inh % values.
Molecular target: native CB1 receptors (Rattus norvegicus)
Experiment: CB1 receptor rat binding assay ([3H]SR141716A, rat brain membranes)
Conditions: rat brain membranes, [3H]SR141716A
# number only, unit % dropped from output

| Molecule | Result number |
| --- | --- |
| CCCCNC(=O)c1ccc2c(c1)N=C(c1sccc1C)c1ccccc1S2 [drawing 1244] | 103 |
| O=C(NCc1ccccn1)c1ccc2c(c1)N=C(c1ccc(Br)cc1)c1ccccc1S2 [drawing 1469] | 71 |
| NS(=O)(=O)c1ccc(CNC(=O)c2ccc3c(c2)N=C(c2ccc(F)cc2)c2ccccc2S3)cc1 [drawing 1454] | 72 |

// query Could you share what Binding rat Inh % was measured for O=C(NCCc1cccnc1)c1ccc2c(c1)N=C(c1ccc(Cl)cc1)c1ccccc1S2 [drawing 1334] , tested on native CB1 receptors (Rattus norvegicus)?
// result 103

// query Proceed to Cc1csc(CNC(=O)c2ccc3c(c2)N=C(c2ccsc2)c2ccccc2S3)c1 [drawing 1313]
// result 106

// query Proceed to CCCCNC(=O)c1ccc2c(c1)N=C(c1ccc(Cl)s1)c1ccc(Cl)cc1S2 [drawing 1480]
// result 90

// query Proceed to CCCNC(=O)c1ccc2c(c1)N=C(c1cccc(Cl)c1)c1ccccc1S2 [drawing 1189]
// result 86

// query Proceed to O=C(NNC(=O)c1ccc2c(c1)N=C(c1ccc(F)cc1)c1ccccc1S2)c1ccccc1 [drawing 1519]
// result 79

// query Proceed to CC(C)NC(=O)c1ccc2c(c1)N=C(c1ccc(Cl)cc1)c1ccccc1S2 [drawing 1372]
// result 90

// query Proceed to COc1cccc(C2=Nc3cc(C(=O)NCCCC(F)(F)F)ccc3Sc3ccccc32)n1 [drawing 1186]
// result 87

// query Proceed to O=C(NCCc1cccnc1)c1ccc2c(c1)N=C(c1cccc(F)c1)c1ccccc1S2 [drawing 1333]
// result 94

// query Proceed to O=C(NCCc1ccncc1)c1ccc2c(c1)N=C(c1ccc(Cl)s1)c1ccccc1S2 [drawing 1540]
// result 109

// query Proceed to Cc1ccsc1C1=Nc2cc(C(=O)NC3CCC(F)(F)CC3)ccc2Sc2ccccc21 [drawing 1265]
// result 93

// query Proceed to Cc1ccsc1C1=Nc2cc(C(=O)NN3[C@H](C)CCC[C@@H]3C)ccc2Sc2ccccc21 [drawing 1530]
// result 65

// query Proceed to O=C(NCCc1ccncc1)c1ccc2c(c1)N=C(c1cccc(F)c1)c1ccccc1S2 [drawing 1389]
// result 88
